Exercise: for every item that follows, state its recorded IC50.
Test system: SK-HEP-1
Test: SRB cell proliferation inhibition assay
Format: cell-based
Conditions: SK-HEP1, human liver cancer cells, 72 h
Numeric answer only, unit µM assumed.

Q. Any idea what IC50 came out for CC#Cc1cn([C@@H]2S[C@H](CO)[C@@H](O)[C@H]2O)c2ncnc(N)c12 on SK-HEP-1?
A. 6.05

Q. GET /values?readout=IC50&system=SK-HEP-1&item= CCS(=O)(=O)Nc1ccc(-c2cn(C3SC(CO)C(O)C3O)c3ncnc(N)c23)cc1 (stereo not shown)
A. 10.3

Q. What IC50 appears in the records for this compound with SK-HEP-1? C=Cc1cn([C@@H]2S[C@H](CO)[C@@H](O)[C@H]2O)c2ncnc(N)c12
A. 0.22

Q. Notebook: pull reported IC50 for SK-HEP-1, entry Nc1ncnc2c1c(-c1cccs1)cn2[C@@H]1S[C@H](CO)[C@@H](O)[C@H]1O
A. 1.38

====

Reported Endpoint: Ki (nM)
Number in nM, nothing else.

Q. GET /values?readout=Ki&system=CK1δ (Homo sapiens, UniProt P48730)&item= C#Cc1cn([C@@H]2S[C@H](CO)[C@@H](O)[C@H]2O)c2ncnc(N)c12
A. 80

Q. Form field: Ki recorded for CCC#Cc1cn([C@@H]2S[C@H](CO)[C@@H](O)[C@H]2O)c2ncnc(N)c12 with CK1δ (Homo sapiens, UniProt P48730) (enter value)
A. 430

====

Target: DYRK1B (Homo sapiens, UniProt Q9Y463)
Sequence (Q9Y463 whole entry): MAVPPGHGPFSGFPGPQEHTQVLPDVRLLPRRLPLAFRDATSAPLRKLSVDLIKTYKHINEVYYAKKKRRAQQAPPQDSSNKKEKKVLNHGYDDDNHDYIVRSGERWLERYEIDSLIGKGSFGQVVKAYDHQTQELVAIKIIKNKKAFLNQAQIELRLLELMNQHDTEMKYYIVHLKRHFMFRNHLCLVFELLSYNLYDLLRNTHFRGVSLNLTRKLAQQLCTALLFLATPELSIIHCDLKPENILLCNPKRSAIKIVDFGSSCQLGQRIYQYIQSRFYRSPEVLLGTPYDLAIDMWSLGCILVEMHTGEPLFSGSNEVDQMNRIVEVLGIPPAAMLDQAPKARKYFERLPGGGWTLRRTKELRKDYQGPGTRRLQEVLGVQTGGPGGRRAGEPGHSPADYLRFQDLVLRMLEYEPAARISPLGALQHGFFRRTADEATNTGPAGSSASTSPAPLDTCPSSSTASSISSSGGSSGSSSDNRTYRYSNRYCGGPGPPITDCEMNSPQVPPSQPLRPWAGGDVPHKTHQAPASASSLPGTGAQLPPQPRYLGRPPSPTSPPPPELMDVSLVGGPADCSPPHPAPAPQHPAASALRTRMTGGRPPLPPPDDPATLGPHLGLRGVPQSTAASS
Provide the recorded IC50 for the entries that follow.
Write the value in nM as a bare number.

Q. Query for DYRK1B (Homo sapiens, UniProt Q9Y463): what IC50 does the record show for COc1ncc2cc(C(=O)Nc3cc(C(=O)NCc4cccc(Cl)c4)ccc3Cl)c(=O)[nH]c2n1 [TC-S 7004, reference compound] ?
A. 22

Q. Hi! What's the reported IC50 for Nc1ncnc2c1c(-c1cccs1)cn2[C@@H]1S[C@H](CO)[C@@H](O)[C@H]1O on DYRK1B (Homo sapiens, UniProt Q9Y463)?
A. 117

Q. Form: Entry = Cc1nccc(-c2cn(Cc3ccccc3)c3cnccc23)n1 [AZ Dyrk1B 33, reference compound] | System = DYRK1B (Homo sapiens, UniProt Q9Y463) | IC50 = ____
A. 50

Q. Query IC50 on DYRK1B (Homo sapiens, UniProt Q9Y463) for Nc1ncnc2c1c(-c1ccco1)cn2[C@@H]1S[C@H](CO)[C@@H](O)[C@H]1O
A. 14

====

Test system: SNU638
Assay: SRB cell proliferation inhibition assay
Type: cell-based
Conditions: SNU-638, human stomach cancer cells, 72 h
For each of the compounds below, state its pIC50.
Notebook: values listed as pIC50 are -log10 of the concentration (mol/L).

Q. // returns reported pIC50 for input Nc1ncnc2c1c(-c1ccccc1)cn2[C@@H]1S[C@H](CO)[C@@H](O)[C@H]1O
A. 5.20

Q. Suppose we examine the compound C#Cc1cn([C@@H]2S[C@H](CO)[C@@H](O)[C@H]2O)c2ncnc(N)c12 ; what pIC50 value has been reported?
A. 7.52

Q. Consider the compound Nc1ncnc2c1c(-c1cccs1)cn2[C@@H]1S[C@H](CO)[C@@H](O)[C@H]1O and give its measured pIC50.
A. 5.62

Q. Dear colleague, I am looking for the recorded pIC50 of the following compound: Nc1ccn([C@@H]2O[C@H](CO)[C@@H](O)C2(F)F)c(=O)n1 [Gemcitabine, reference compound]
A. 7.00

Q. Look at this compound and give its reported pIC50. C=Cc1cn([C@@H]2S[C@H](CO)[C@@H](O)[C@H]2O)c2ncnc(N)c12
A. 6.33

====

Test system: KM12
Assay: Antiproliferative activity against KM12
Type: cell-based
Details: Homo sapiens, colon cancer cell line highly expressing NTRK1/2/3 and DYRK3, read-out: IC50 cell growth of KM12
Reported Endpoint: pIC50
On this scale, pIC50 is minus log10 of a concentration expressed in M (mol/L).

Q. Item under review: C#Cc1cn([C@@H]2S[C@H](CO)[C@@H](O)[C@H]2O)c2ncnc(N)c12 . Reported pIC50?
A. 7.15

Q. Would you mind telling me what pIC50 value was observed for COc1cccc2c1C(=O)c1c(O)c3c(c(O)c1C2=O)C[C@@](O)(C(=O)CO)C[C@@H]3O[C@H]1C[C@H](N)[C@H](O)[C@H](C)O1 [doxorubicin, reference compound] ?
A. 6.92

====

Exercise: state measured IC50 for each of the compounds provided.
Test system: SNU638
Test: SRB cell proliferation inhibition assay
Format: cell-based
Conditions: SNU-638, human stomach cancer cells, 72 h
Provide the reading as a plain figure in nM.

Q. Fill in: IC50 of CCS(=O)(=O)Nc1ccc(-c2cn(C3SC(CO)C(O)C3O)c3ncnc(N)c23)cc1 (stereo not drawn) [Compound 1f] is ___
A. 27500

Q. Query (compound): COc1cc([C@@H]2c3cc4c(cc3[C@@H](O[C@@H]3O[C@@H]5CO[C@@H](C)O[C@H]5[C@H](O)[C@H]3O)[C@H]3COC(=O)[C@H]23)OCO4)cc(OC)c1O [Etoposide, reference compound] ; field requested: IC50
A. 410

Q. Would you kindly share the measured IC50 for Nc1ncnc2c1c(-c1ccco1)cn2[C@@H]1S[C@H](CO)[C@@H](O)[C@H]1O [Compound 1a] ?
A. 1950

====

A short record of pIC50 observed with UniProt Q13627 follows.
Remember the convention: pIC50 equals -log10 of concentration in molar.

Q. GET /values?readout=pIC50&item= Cc1nccc(-c2cn(Cc3ccccc3)c3cnccc23)n1 [AZ Dyrk1B 33, reference compound]
A. 7.85

Q. Report pIC50 for C#Cc1cn([C@@H]2S[C@H](CO)[C@@H](O)[C@H]2O)c2ncnc(N)c12 please.
A. 7.37

Q. So what's the measured pIC50 for this one? Nc1ncnc2c1c(-c1ccccc1)cn2[C@@H]1S[C@H](CO)[C@@H](O)[C@H]1O
A. 6.45

====

System: MDA-MB-231
Experiment: SRB cell proliferation inhibition assay
Type: cell-based
Conditions: human breast cancer cells, 72 h
pIC50: −log10 of the molar value.
Each entry falls into one class according to its pIC50; the ranges are class 0 (below 5), class 1 (5 to below 6), class 2 (6 or more)

Q. Field: class (pIC50) — entry: Nc1ncnc2c1c(C#CC1CC1)cn2[C@@H]1S[C@H](CO)[C@@H](O)[C@H]1O
A. class 0

Q. Class for Nc1ncnc2c1c(-c1cccs1)cn2[C@@H]1S[C@H](CO)[C@@H](O)[C@H]1O ?
A. class 1

Q. Pick a category. Item: Nc1ncnc2c1c(-c1ccco1)cn2[C@@H]1S[C@H](CO)[C@@H](O)[C@H]1O
A. class 1

Q. Which bin, given its pIC50, does CC(C)(C)C#Cc1cn([C@@H]2S[C@H](CO)[C@@H](O)[C@H]2O)c2ncnc(N)c12 occupy?
A. class 0

Q. Bin? COc1cc([C@@H]2c3cc4c(cc3[C@@H](O[C@@H]3O[C@@H]5CO[C@@H](C)O[C@H]5[C@H](O)[C@H]3O)[C@H]3COC(=O)[C@H]23)OCO4)cc(OC)c1O [Etoposide, reference compound]
A. class 1

Q. Bin? C=Cc1cn([C@@H]2S[C@H](CO)[C@@H](O)[C@H]2O)c2ncnc(N)c12
A. class 2

Q. Please indicate the class for Nc1ncnc2c1c(-c1ccc(N3CCS(=O)(=O)CC3)cc1)cn2C1SC(CO)C(O)C1O (stereo not shown) based on its pIC50.
A. class 0

Q. Kindly identify the class of C#Cc1cn([C@@H]2S[C@H](CO)[C@@H](O)[C@H]2O)c2ncnc(N)c12 .
A. class 2

Q. Determine which band this compound sits in: CCC#Cc1cn([C@@H]2S[C@H](CO)[C@@H](O)[C@H]2O)c2ncnc(N)c12
A. class 0

Q. Hi, small favor: classify CCS(=O)(=O)Nc1ccc(-c2cn(C3SC(CO)C(O)C3O)c3ncnc(N)c23)cc1 (stereo not shown) by its pIC50 when you get a moment.
A. class 0

Q. Please classify: CC#Cc1cn([C@@H]2S[C@H](CO)[C@@H](O)[C@H]2O)c2ncnc(N)c12
A. class 0

====

Give measured pKi for each item. Keep answers brief.
Remember, pKi is on a log scale: it is -log10 of the molar concentration.

Q. # returns recorded pKi (system: TRKA (Homo sapiens)) for C=Cc1cn([C@@H]2S[C@H](CO)[C@@H](O)[C@H]2O)c2ncnc(N)c12
Sequence (P04629 33-796): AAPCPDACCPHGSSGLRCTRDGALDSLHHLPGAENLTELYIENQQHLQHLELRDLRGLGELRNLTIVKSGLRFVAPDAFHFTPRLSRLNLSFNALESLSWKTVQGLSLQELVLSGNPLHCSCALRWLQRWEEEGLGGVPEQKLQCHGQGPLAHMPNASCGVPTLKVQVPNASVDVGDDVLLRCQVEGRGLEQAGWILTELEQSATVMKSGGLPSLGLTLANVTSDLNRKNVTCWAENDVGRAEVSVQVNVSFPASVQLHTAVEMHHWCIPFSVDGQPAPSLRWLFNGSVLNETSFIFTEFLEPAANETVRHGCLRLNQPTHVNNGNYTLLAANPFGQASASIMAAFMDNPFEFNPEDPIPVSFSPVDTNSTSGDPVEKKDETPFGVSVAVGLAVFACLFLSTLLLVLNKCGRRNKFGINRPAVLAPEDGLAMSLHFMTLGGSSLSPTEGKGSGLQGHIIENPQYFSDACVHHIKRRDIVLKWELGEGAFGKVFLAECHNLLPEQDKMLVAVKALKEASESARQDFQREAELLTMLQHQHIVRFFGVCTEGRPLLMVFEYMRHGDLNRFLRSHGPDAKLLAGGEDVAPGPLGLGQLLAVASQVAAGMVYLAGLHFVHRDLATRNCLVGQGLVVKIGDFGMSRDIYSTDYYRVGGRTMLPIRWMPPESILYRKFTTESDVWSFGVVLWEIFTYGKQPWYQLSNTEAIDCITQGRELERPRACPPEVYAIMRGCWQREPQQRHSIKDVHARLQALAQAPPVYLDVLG
A. 6.02

Q. Form entry - test system: TRKA (Homo sapiens); read-out: pKi; compound: Nc1ncnc2c1c(-c1cccs1)cn2[C@@H]1S[C@H](CO)[C@@H](O)[C@H]1O
A. 7.66

====

Molecular target: CYP2C19 (Homo sapiens)
Construct: Human liver microsomes (0.25 mg/mL); from tissue; host or cells: human liver microsomes
Sequence (P33261 whole entry): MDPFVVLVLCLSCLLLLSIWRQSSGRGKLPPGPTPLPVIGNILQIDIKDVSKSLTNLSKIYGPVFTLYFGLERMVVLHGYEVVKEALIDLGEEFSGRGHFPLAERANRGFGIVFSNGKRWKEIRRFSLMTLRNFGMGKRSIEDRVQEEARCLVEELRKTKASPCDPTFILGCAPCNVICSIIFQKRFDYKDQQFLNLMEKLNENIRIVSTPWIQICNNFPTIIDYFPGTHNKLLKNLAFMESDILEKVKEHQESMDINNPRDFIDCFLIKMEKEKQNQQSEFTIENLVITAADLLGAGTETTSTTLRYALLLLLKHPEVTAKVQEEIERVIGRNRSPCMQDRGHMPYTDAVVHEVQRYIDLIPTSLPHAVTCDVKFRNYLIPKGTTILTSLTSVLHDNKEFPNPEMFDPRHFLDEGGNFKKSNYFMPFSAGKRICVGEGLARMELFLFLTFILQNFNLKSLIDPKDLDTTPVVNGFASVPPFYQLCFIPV
Assay: CYP inhibition assay
Assay type: in vitro ADME
Conditions: human, human liver microsomes, pH 7.4, probe S-mephenytoin 100 μM (in a cocktail of five substrates); inhibitor 0.1 μM; read-out: Percentage of enzyme remaining after inhibition, CYP2C19
Reported Endpoint: remaining at 15 min, 0.1 μM (%)
Write down the numeric answer in % and omit the unit.

Q. Fill in the blank: the reported remaining at 15 min, 0.1 μM of CC(=O)N1CCN(c2ccc(OCC3COC(Cn4ccnc4)(c4ccc(Cl)cc4Cl)O3)cc2)CC1 (stereo not shown) [Ketoconazole, reference compound] is ____.
A. 93.6
